Tested On: human C3a receptor (C3aR) (Homo sapiens)
Construct: expressed in transfected cells
Sequence (Q16581 1-482): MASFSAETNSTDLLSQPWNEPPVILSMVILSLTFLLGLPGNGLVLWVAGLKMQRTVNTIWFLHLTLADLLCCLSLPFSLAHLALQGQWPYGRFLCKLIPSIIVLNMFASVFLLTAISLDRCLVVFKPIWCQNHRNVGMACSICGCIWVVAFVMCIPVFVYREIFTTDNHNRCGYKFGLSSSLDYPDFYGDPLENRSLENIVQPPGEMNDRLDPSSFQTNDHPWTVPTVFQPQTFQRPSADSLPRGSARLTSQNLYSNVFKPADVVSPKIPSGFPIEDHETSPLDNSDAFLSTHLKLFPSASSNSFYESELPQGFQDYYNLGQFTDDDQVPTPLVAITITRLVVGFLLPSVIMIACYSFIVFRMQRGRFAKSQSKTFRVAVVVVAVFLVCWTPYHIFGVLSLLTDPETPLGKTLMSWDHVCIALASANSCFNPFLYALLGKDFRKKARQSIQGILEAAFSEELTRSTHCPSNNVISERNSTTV
Assay Method Text: Inhibition of human [125I]-C3a binding to human C3a receptor (SPA, membranes of HEK293 cells expressing recombinant C3aR)
Condition Description: 0.1 nM [125I]-C3a, 3 hours at room temperature; Table 4
Result Type: IC50

[[record]]
compound = "Cc1ccc(S(=O)(=O)NCCCC[C@H](NC(=O)c2cccn(Cc3ccccc3)c2=O)C(=O)O)cc1 [Compound 61]"
result = "500 to 20000 nM"

[[record]]
compound = "N=C(N)NCCCC[C@H](NC(=O)c1cccn(Cc2ccccc2)c1=O)C(=O)O [Compound 63]"
result = "500 to 20000 nM"

[[record]]
compound = "Cc1c(C)c(S(=O)(=O)NC(=N)NCCC[C@H](NC(=O)c2cccn(CC(c3ccccc3)c3ccccc3)c2=O)C(=O)O)c(C)c2c1OC(C)(C)CC2 [Compound 79]"
result = "50 to 500 nM"

[[record]]
compound = "CS(=O)(=O)NCCC[C@H](NC(=O)c1cccn(C(c2ccccc2)c2ccccc2)c1=O)C(=O)O [Compound 69]"
result = "50 to 500 nM"

[[record]]
compound = "NC(=O)CC[C@H](NC(=O)c1cccn(C(c2ccccc2)c2ccccc2)c1=O)C(=O)O [Compound 64]"
result = "500 to 20000 nM"

[[record]]
compound = "Cc1ccc(S(=O)(=O)NCCCC[C@H](NC(=O)c2cccn(C(c3ccccc3)c3ccccc3)c2=O)C(=O)O)cc1 [Compound 62]"
result = "50 to 500 nM"

[[record]]
compound = "O=C(N[C@@H](CCCNC1=NCCN1)C(=O)O)c1cccn(Cc2ccccc2)c1=O [Compound 70]"
result = "500 to 20000 nM"


====

Tested On: human C3a receptor (C3aR) (Homo sapiens, UniProt Q16581)
Construct: expressed in transfected cells
Assay Method Text: Inhibition of human [125I]-C3a binding to human C3a receptor (SPA, membranes of HEK293 cells expressing recombinant C3aR)
Condition Description: 0.1 nM [125I]-C3a, 3 hours at room temperature; Table 4
pIC50: −log10 of the molar value.
Result Type: pIC50

[[record]]
entry_smiles = "COC(=O)[C@H](CCCNC(=N)N[N+](=O)[O-])NC(=O)c1cccn(C(c2ccccc2)c2ccccc2)c1=O"
tested_on = "human C3a receptor (C3aR) (Homo sapiens, UniProt Q16581)"
result = "4.70 to 6.30"

[[record]]
entry_smiles = "Cc1c(C)c(S(=O)(=O)NC(=N)Nc2cccc([C@H](NC(=O)c3cccn(Cc4ccccc4)c3=O)C(=O)O)c2)c(C)c2c1OC(C)(C)CC2"
tested_on = "human C3a receptor (C3aR) (Homo sapiens, UniProt Q16581)"
result = "4.70 to 6.30"

[[record]]
entry_smiles = "CCOC(=O)N=C(NC)NCC[C@H](NC(=O)c1cccn(C(c2ccccc2)c2ccccc2)c1=O)C(=O)O"
tested_on = "human C3a receptor (C3aR) (Homo sapiens, UniProt Q16581)"
result = "4.70 to 6.30"

[[record]]
entry_smiles = "O=C(N[C@@H](CCCNC1=NCCN1)C(=O)O)c1cccn(C(c2ccccc2)c2ccccc2)c1=O"
tested_on = "human C3a receptor (C3aR) (Homo sapiens, UniProt Q16581)"
result = "> 7.30"

[[record]]
entry_smiles = "COC(=O)[C@H](CCCNC(=N)N)NC(=O)c1cccn(C(c2ccccc2)c2ccccc2)c1=O"
tested_on = "human C3a receptor (C3aR) (Homo sapiens, UniProt Q16581)"
result = "> 7.30"

[[record]]
entry_smiles = "N=C(N)NCC[C@H](NC(=O)c1cccn(C(c2ccccc2)c2ccccc2)c1=O)C(=O)O"
tested_on = "human C3a receptor (C3aR) (Homo sapiens, UniProt Q16581)"
result = "6.30 to 7.30"

[[record]]
entry_smiles = "Cc1ccc(S(=O)(=O)NCCC[C@H](NC(=O)c2cccn(C(c3ccccc3)c3ccccc3)c2=O)C(=O)O)cc1"
tested_on = "human C3a receptor (C3aR) (Homo sapiens, UniProt Q16581)"
result = "4.70 to 6.30"

[[record]]
entry_smiles = "Cc1ccc(S(=O)(=O)NC(=N)NCCC[C@H](NC(=O)c2cccn(Cc3ccccc3)c2=O)C(=O)O)cc1"
tested_on = "human C3a receptor (C3aR) (Homo sapiens, UniProt Q16581)"
result = "4.70 to 6.30"

[[record]]
entry_smiles = "N=C(NCCC[C@H](NC(=O)c1cccn(C(c2ccccc2)c2ccccc2)c1=O)C(=O)O)N[N+](=O)[O-]"
tested_on = "human C3a receptor (C3aR) (Homo sapiens, UniProt Q16581)"
result = "6.30 to 7.30"

[[record]]
entry_smiles = "N=C(N)Nc1cccc([C@H](NC(=O)c2cccn(Cc3ccccc3)c2=O)C(=O)O)c1"
tested_on = "human C3a receptor (C3aR) (Homo sapiens, UniProt Q16581)"
result = "6.30 to 7.30"


====

Tested On: human C3a receptor (C3aR) (Homo sapiens, UniProt Q16581)
Construct: expressed in transfected cells
Assay Method Text: Inhibition of human [125I]-C3a binding to human C3a receptor (SPA, membranes of HEK293 cells expressing recombinant C3aR)
Condition Description: 0.1 nM [125I]-C3a, 3 hours at room temperature; Table 6
Result Type: IC50

[[record]]
entry_smiles = "CCOC(=O)CC(=N)NCCC[C@H](NC(=O)c1ccc(C(c2ccccc2)c2ccccc2)s1)C(=O)O"
result = "500 to 20000 nM"

[[record]]
entry_smiles = "CC(=N)NCCC[C@H](NC(=O)c1cccc(C(c2ccccc2)c2ccccc2)c1)C(=O)O"
result = "50 to 500 nM"

[[record]]
entry_smiles = "CCCC(=N)NCCC[C@H](NC(=O)c1ccc(C(c2ccccc2)c2ccccc2)s1)C(=O)O"
result = "500 to 20000 nM"

[[record]]
entry_smiles = "CC(=N)NCCC[C@H](NC(=O)c1cccn(C(c2ccccc2)c2ccccc2)c1=O)C(=O)O"
result = "< 50 nM"

[[record]]
entry_smiles = "CC(=N)NCCC[C@H](NC(=O)c1cccn(Cc2cc(F)cc(F)c2)c1=O)C(=O)O"
result = "50 to 500 nM"

[[record]]
entry_smiles = "CC(=N)NCCC[C@H](NC(=O)c1cccn(Cc2cc(Cl)cc(Cl)c2)c1=O)C(=O)O"
result = "< 50 nM"

[[record]]
entry_smiles = "CC(=N)NCCC[C@H](NC(=O)c1ccc(C(c2ccc(F)cc2)c2ccc(F)cc2)s1)C(=O)O"
result = "50 to 500 nM"

[[record]]
entry_smiles = "N=C(N)NCCC[C@@H](CC(=O)O)NC(=O)c1cccn(C(c2ccccc2)c2ccccc2)c1=O"
result = "< 50 nM"

[[record]]
entry_smiles = "N=C(N)NCCCC[C@H](NC(=O)c1cccn(C(c2ccccc2)c2ccccc2)c1=O)C(=O)O"
result = "< 50 nM"

[[record]]
entry_smiles = "CC(=N)NCCC[C@H](NC(=O)c1ccc(C(c2ccc(C)cc2)c2ccc(C)cc2)s1)C(=O)O"
result = "500 to 20000 nM"

[[record]]
entry_smiles = "N=C(CC(=O)O)NCCC[C@H](NC(=O)c1cccn(C(c2ccccc2)c2ccccc2)c1=O)C(=O)O"
result = "< 50 nM"


====

pIC50 values for the compounds below.
Tested On: human C3a receptor (C3aR) (Homo sapiens, UniProt Q16581)
Construct: expressed in transfected cells
Sequence (Q16581 1-482): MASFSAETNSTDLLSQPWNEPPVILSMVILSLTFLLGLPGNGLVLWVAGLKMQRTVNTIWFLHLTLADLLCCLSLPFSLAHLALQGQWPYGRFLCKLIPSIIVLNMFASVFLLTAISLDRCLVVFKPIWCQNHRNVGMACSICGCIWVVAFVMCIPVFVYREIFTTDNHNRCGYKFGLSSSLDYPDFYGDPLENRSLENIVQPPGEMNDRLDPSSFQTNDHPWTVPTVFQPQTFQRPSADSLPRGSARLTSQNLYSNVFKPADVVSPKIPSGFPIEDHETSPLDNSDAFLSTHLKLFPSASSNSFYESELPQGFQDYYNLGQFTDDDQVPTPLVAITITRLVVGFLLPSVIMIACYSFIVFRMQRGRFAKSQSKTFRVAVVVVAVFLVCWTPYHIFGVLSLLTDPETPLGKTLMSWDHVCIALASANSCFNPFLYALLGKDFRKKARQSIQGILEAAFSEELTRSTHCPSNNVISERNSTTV
Assay Method Text: Inhibition of human [125I]-C3a binding to human C3a receptor (SPA, membranes of HEK293 cells expressing recombinant C3aR)
Condition Description: 0.1 nM [125I]-C3a, 3 hours at room temperature; Table 6
Method: Inhibition of human [^125I]-C3a binding to human C3a receptor Binding of human [^125I]-C3a to human C3a receptor (C3aR) was done using cell membranes from HEK293 cells stably expressing recombinant C3aR, in a homogeneous scintillation proximity assay (SPA). […] Incubation was done for 3 hours at room temperature followed by reading in a TopCount scintillation microplate reader. Non-specific binding was determined by adding 1 μM unlabeled C3a (Calbiochem) to the assay mixture. […]
pIC50: −log10 of the molar value.
Result Type: pIC50

[[record]]
entry_smiles = "CC(=N)NCCC[C@H](NC(=O)c1cccn(Cc2ccccc2Cl)c1=O)C(=O)O"
result = "4.70 to 6.30"

[[record]]
entry_smiles = "CC(=N)NCCC[C@H](NC(=O)c1ccc(C(c2ccccc2)c2ccccc2)cc1)C(=O)O"
result = "4.70 to 6.30"

[[record]]
entry_smiles = "CC(=N)NCCC[C@H](NC(=O)c1ccc(C(c2cccc(C(F)(F)F)c2)c2cccc(C(F)(F)F)c2)s1)C(=O)O"
result = "4.70 to 6.30"

[[record]]
entry_smiles = "CC(=N)NCCC[C@H](NC(=O)c1cccn(Cc2cccc(Cl)c2)c1=O)C(=O)O"
result = "6.30 to 7.30"

[[record]]
entry_smiles = "O=C(N[C@@H](Cc1c[nH]c2ccccc12)C(=O)O)c1cccn(C(c2ccccc2)c2ccccc2)c1=O"
result = "6.30 to 7.30"

[[record]]
entry_smiles = "CC(=N)NCCC[C@H](NC(=O)c1cccn(Cc2cccc(C(F)(F)F)c2)c1=O)C(=O)O"
result = "6.30 to 7.30"

[[record]]
entry_smiles = "CC(C)/N=C(\\NCCC[C@H](NC(=O)c1cccn(C(c2ccccc2)c2ccccc2)c1=O)C(=O)O)NC(C)C"
result = "6.30 to 7.30"

[[record]]
entry_smiles = "CC(=N)NCCC[C@H](NC(=O)c1ccc(C(c2cccc(F)c2)c2cccc(F)c2)s1)C(=O)O"
result = "6.30 to 7.30"

[[record]]
entry_smiles = "CC(=N)NCCC[C@H](NC(=O)c1cccn(Cc2ccccc2C(F)(F)F)c1=O)C(=O)O"
result = "4.70 to 6.30"

